Reference for the values: patent US20170073337A1

biological target: human ether-a-go-go related gene (hERG) channel (Homo sapiens, UniProt Q12809); construct: expressed in transfected cells; host or cells: CHO cells; assay: hERG test; type: cell-based; details: % inhibition of IKr tail peak current at 3 uM; CHO cells expressing hERG
Sequence (Q12809 whole entry): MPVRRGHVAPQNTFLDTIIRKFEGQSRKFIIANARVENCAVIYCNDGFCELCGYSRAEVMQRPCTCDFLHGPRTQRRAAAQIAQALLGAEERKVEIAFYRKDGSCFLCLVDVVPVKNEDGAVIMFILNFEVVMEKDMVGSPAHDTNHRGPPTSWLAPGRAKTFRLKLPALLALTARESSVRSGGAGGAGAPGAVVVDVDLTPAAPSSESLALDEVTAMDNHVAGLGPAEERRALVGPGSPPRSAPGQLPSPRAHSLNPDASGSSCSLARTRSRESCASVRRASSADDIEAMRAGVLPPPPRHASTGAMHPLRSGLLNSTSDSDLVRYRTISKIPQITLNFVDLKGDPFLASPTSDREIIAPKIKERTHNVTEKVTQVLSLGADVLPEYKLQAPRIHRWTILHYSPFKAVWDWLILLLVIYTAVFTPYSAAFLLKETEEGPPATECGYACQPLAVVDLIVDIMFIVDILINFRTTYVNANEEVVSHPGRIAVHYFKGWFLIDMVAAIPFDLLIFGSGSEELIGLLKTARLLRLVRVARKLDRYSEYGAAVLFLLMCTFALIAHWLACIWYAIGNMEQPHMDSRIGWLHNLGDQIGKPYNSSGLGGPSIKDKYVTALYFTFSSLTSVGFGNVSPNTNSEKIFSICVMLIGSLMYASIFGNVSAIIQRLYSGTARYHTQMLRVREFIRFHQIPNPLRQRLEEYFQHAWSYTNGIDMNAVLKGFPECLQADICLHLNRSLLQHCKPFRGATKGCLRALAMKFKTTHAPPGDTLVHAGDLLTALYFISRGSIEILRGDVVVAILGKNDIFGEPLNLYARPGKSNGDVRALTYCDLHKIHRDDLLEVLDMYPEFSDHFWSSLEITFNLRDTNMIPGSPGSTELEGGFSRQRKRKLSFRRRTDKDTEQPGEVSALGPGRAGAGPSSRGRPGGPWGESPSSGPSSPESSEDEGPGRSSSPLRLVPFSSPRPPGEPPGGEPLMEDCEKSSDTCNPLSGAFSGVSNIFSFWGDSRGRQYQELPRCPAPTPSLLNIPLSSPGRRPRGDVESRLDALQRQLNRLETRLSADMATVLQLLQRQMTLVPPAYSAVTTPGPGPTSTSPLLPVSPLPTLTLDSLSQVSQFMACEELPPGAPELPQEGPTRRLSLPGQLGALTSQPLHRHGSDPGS
In this section we review reported hERG_3 uM_% values for a set of compounds.
Measure: hERG_3 uM_% (%)

1. COc1ccc(C(=O)Nc2ccc(F)c([C@@]3(C)N=C(N)S[C@H](C)[C@@H]3F)c2)nc1; 34.3
2. C[C@H]1SC(N)=N[C@](C)(c2cc(NC(=O)c3cnc(OC(F)F)cn3)ccc2F)[C@H]1F; 40.4
3. CO[C@H]1[C@@H](C)SC(N)=N[C@]1(C)c1cc(NC(=O)c2ccc(C#N)cn2)ccc1F; 45.6
4. CO[C@H]1[C@@H](CF)OC(N)=N[C@]1(C)c1cc(NC(=O)c2ncc(Cl)cc2Cl)ccc1Cl; 14.2
5. C[C@]1(c2cc(NC(=O)c3ccc(OCF)cn3)ccc2F)N=C(N)SCC12CC(F)(F)C2; 58.6
6. Cc1cc(C#N)cnc1C(=O)Nc1ccc(F)c([C@@]2(C)N=C(N)S[C@H](C)[C@@H]2F)c1; 55.7
7. CC[C@H]1SC(N)=N[C@](C)(c2cc(NC(=O)c3ccc(F)cn3)ccc2F)[C@H]1F; 58.6

----------
test: Brain distribution studies; format: in vivo; settings: rat, brain / plasma, iv, 0.5 mg/mL/kg, 30 minutes later, area ratio brain/plasma
Measure: Kp at 0.5 h

1. C[C@H]1SC(N)=N[C@](C)(c2cc(NC(=O)c3cnc(OCF)cn3)ccc2F)C12CC(F)(F)C2 [Compound I-62]; 4.8
2. CC(F)(F)[C@H]1OC(N)=N[C@](C)(c2cc(NC(=O)c3ccc(C#N)cn3)ccc2F)[C@H]1F [Compound I-40]; 0.74
3. C[C@H]1SC(N)=N[C@](C)(c2cc(NC(=O)c3cnc(OCC(F)F)cn3)ccc2F)[C@H]1F [Compound I-48]; 2.1
4. COc1cnc(C(=O)Nc2ccc(F)c([C@@]3(C)N=C(N)O[C@H](C(C)(F)F)[C@@H]3F)c2)cn1 [Compound I-42]; 2
5. C[C@H](F)[C@H]1OC(N)=N[C@](C)(c2cc(NC(=O)c3ccc(C#N)cn3)ccc2F)[C@H]1F [Compound I-13]; 0.56
6. C[C@@H](F)[C@H]1OC(N)=N[C@](C)(c2cc(NC(=O)c3ccc(C#N)cn3)ccc2F)[C@H]1F [Compound I-15]; 0.79
7. Cc1cc(C#N)cnc1C(=O)Nc1ccc(F)c([C@@]2(C)N=C(N)S[C@H](C)[C@@H]2F)c1 [Compound I-52]; 0.63

----------
Experiment: Solubility test
Assay type: physicochemical
Conditions: JP 1st fluid, pH 1.2, simulated gastric fluid, kinetic from dmso stock; read-out: JP1
Method: A 10 mmol/L solution of the compound was prepared with DMSO, and 2 μL of the compound of the present invention solution was added, respectively, to 198 μL of JP 1st fluid (water was added to 2.0 g of sodium chloride and 7.0 ml, of hydrochloric acid to reach 1000 mL) and JP 2nd fluid (See Table 4). The mixture was left standing for 16 hours at 25° C. or shaken for 1 hour at ruom temperature, and the mixture was vacuum-filtered. […]
In this section we review reported solubility kinetic at 1 h values for a set of compounds.
Measure: solubility kinetic at 1 h (µM)

1) C[C@H]1SC(N)=N[C@](C)(c2cc(NC(=O)c3ncc(C#N)cc3F)ccc2F)[C@H]1F; 42.1
2) COc1cnc(C(=O)Nc2ccc(F)c([C@@]3(C)N=C(N)O[C@H]([C@H](C)F)[C@@H]3F)c2)cn1; 33.9
3) C[C@H]1SC(N)=N[C@](C)(c2cc(NC(=O)c3cnc(OCC4CC4)cn3)ccc2F)[C@H]1F; 47.2

----------
target: CYP2D6 (Homo sapiens, UniProt P10635); construct: The commercially available pooled human liver microsomes are used as an enzyme resource; from tissue; host or cells: pooled human liver microsomes; assay: CYP inhibition test (CYP2D6); format: in vitro ADME; conditions: pooled human liver microsomes; dextromethorphan O-demethylation
Sequence (P10635 whole entry): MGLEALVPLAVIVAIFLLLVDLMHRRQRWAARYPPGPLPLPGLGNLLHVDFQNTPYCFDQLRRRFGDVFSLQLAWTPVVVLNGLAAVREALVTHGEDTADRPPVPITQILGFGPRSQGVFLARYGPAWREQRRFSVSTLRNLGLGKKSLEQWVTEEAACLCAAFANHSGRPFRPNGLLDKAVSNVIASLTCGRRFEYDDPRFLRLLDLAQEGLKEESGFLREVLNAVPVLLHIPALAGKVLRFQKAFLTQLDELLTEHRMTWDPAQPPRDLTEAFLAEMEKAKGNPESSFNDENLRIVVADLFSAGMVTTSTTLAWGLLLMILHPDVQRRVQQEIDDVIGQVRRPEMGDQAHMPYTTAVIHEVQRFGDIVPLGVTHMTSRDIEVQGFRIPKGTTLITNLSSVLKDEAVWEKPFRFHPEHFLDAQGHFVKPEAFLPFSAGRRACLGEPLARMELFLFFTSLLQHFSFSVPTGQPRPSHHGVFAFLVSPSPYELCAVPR
Measure: IC50

1) C[C@]1(c2nc(NC(=O)c3ccc(C#N)cn3)ccc2F)N=C(N)S[C@H](CF)[C@@H]1F; ≥ 20 µM
2) Cc1cc(C#N)cnc1C(=O)Nc1ccc(F)c([C@@]2(C)N=C(N)S[C@H](C)[C@@H]2F)c1; ≥ 20 µM
3) C[C@H]1SC(N)=N[C@](C)(c2cccc(NC(=O)c3ccc(F)cn3)c2)[C@H]1F; ≥ 20 µM
4) C[C@H]1[C@H](C(F)(F)F)OC(N)=N[C@]1(C)c1cc(NC(=O)c2ccc(C#N)cn2)ccc1F; ≥ 20 µM
5) Cc1nc(C(=O)Nc2ccc(F)c([C@@]3(C)N=C(N)O[C@H](C(F)(F)F)[C@@H]3C)c2)co1; ≥ 10 µM
6) CO[C@H]1[C@@H](CF)OC(N)=N[C@]1(C)c1cc(NC(=O)c2ncc(Cl)cc2Cl)ccc1Cl; ≥ 10 µM

----------
In this section we review reported hERG_3 uM_% values for a set of compounds.
target: human ether-a-go-go related gene (hERG) channel (Homo sapiens); construct: expressed in transfected cells; host or cells: CHO cells; test: hERG test; format: cell-based; conditions: % inhibition of IKr tail peak current at 3 uM; CHO cells expressing hERG
Measure: hERG_3 uM_% (%)

1) COCC(F)(F)[C@H]1OC(N)=N[C@](C)(c2cc(NC(=O)c3cnc(OCF)cn3)ccc2F)[C@H]1F; 7.8
2) C[C@H]1SC(N)=N[C@](C)(c2cc(NC(=O)c3ncc(C#N)cc3Cl)ccc2F)[C@H]1F; 41.3
3) C[C@H]1[C@H](C(F)(F)F)OC(N)=N[C@]1(C)c1cc(NC(=O)c2ccc(C#N)cn2)ccc1F; 45.4
4) COc1cnc(C(=O)Nc2ccc(F)c([C@@]3(C)N=C(N)O[C@H]([C@@H](C)F)[C@@H]3F)c2)cn1; 17
5) C[C@H]1SC(N)=N[C@](C)(c2cc(NC(=O)c3cnc(C(F)F)cn3)ccc2F)[C@H]1F; 28
6) C[C@H]1SC(N)=N[C@](C)(c2nc(NC(=O)c3ccc(F)cn3)ccc2F)[C@H]1F; 38.7
7) C[C@@H]1[C@@H](C(F)(F)F)OC(N)=N[C@]1(C)c1cc(NC(=O)c2ccc(C#N)cn2)ccc1F; 28.8
8) CO[C@H]1[C@@H](CF)OC(N)=N[C@]1(C)c1cc(NC(=O)c2ccc(F)cn2)ccc1F; 41.9
9) CO[C@H]1[C@@H](C)SC(N)=N[C@]1(C)c1cc(NC(=O)c2ccc(F)cn2)ccc1F; 42.7
10) C[C@H]1[C@@H](C(F)F)OC(N)=N[C@]1(C)c1cc(NC(=O)c2ccc(C#N)cn2)ccc1F; 27.4
11) CO[C@H]1[C@@H](CF)OC(N)=N[C@]1(C)c1cc(NC(=O)c2cnc(OCF)cn2)ccc1Cl; 18.8
12) COc1cnc(C(=O)Nc2ccc(F)c([C@@]3(C)N=C(N)O[C@H]4[C@@H]3OCC4(F)F)c2)cn1; 29.9
13) CO[C@H]1[C@@H](C)SC(N)=N[C@]1(C)c1cc(NC(=O)c2cnc(OCF)cn2)ccc1F; 13.8
14) C[C@@]1(c2cc(NC(=O)c3ccc(C#N)cn3)ccc2F)C[C@@](C)(C(F)(F)F)OC(N)=N1; 47.4
15) C[C@H]1SC(N)=N[C@](C)(c2cc(NC(=O)c3ccc(OCF)cn3)ccc2F)[C@H]1F; 39.4
16) CC(F)(F)[C@H]1OC(N)=N[C@](C)(c2cc(NC(=O)c3cnc(OCC(F)(F)F)cn3)ccc2F)[C@H]1F; 21.3
17) C[C@]1(c2cc(NC(=O)c3ccc(C#N)cn3)ccc2F)N=C(N)O[C@H](C(F)(F)C2CC2)[C@@H]1F; 49.3
18) C[C@H]1SC(N)=N[C@](C)(c2cc(NC(=O)c3ccc(OCC(F)(F)F)cn3)ccc2F)[C@H]1F; 37.7
19) C[C@@H](F)[C@H]1OC(N)=N[C@](C)(c2cc(NC(=O)c3ccc(C#N)cn3)ccc2F)[C@H]1F; 57
20) C[C@]1(c2cc(NC(=O)c3cnc(OCF)cn3)ccc2F)N=C(N)SCC12CC(F)(F)C2; 37.6
21) C[C@H]1SC(N)=N[C@](C)(c2cc(NC(=O)c3ncc(OCC(F)(F)F)cn3)ccc2F)[C@H]1F; 47.9
22) CCOc1cnc(C(=O)Nc2ccc(F)c([C@@]3(C)N=C(N)S[C@H](C)[C@@H]3F)c2)cn1; 28.8
23) COc1cnc(C(=O)Nc2ccc(F)c([C@@]3(C)N=C(N)O[C@H](C(F)(F)C4CC4)[C@@H]3F)c2)cn1; 18.1
24) C[C@]1(c2cc(NC(=O)c3ccc(C#N)cn3)ccc2F)N=C(N)O[C@H]2[C@@H]1OCC2(F)F; 41.1
25) C[C@H]1[C@@H](C(F)(F)F)OC(N)=N[C@]1(C)c1cc(NC(=O)c2cnc(OCF)cn2)ccc1F [Compound I-30]; 15.1
26) CC[C@H]1SC(N)=N[C@](C)(c2cc(NC(=O)c3cnc(OCF)cn3)ccc2F)[C@H]1F; 27.1
27) C[C@H]1[C@@H](C(F)(F)F)OC(N)=N[C@]1(C)c1cc(NC(=O)c2cnc(OCF)cn2)ccc1F [Compound I-41]; 24.8
28) Cc1nc(C(=O)Nc2ccc(F)c([C@@]3(C)N=C(N)O[C@H](C(F)(F)F)[C@@H]3C)c2)co1; 15.2
